Experiment Description: Cmax in BALB/c mouse at 10 mg/kg, sc by LC-MS/MS analysis
Assay type: ADME, organism-based
Recorded Conditions: in vivo

Structure	Cmax / ng/mL
CCc1c(F)ccc2cc(O)cc(-c3ncc4c(N5C[C@H]6CC[C@@H](C5)N6)nc(OC[C@@H]5CCCN5CCCCOCC(=O)N[C@H](C(=O)N5C[C@H](O)C[C@H]5C(=O)N[C@@H](C)c5ccc(-c6scnc6C)cc5)C(C)(C)C)nc4c3F)c12	2080

---

Test system: von Hippel-Lindau disease tumor suppressor/GTPase KRas (Homo sapiens), P01116+P40337 [G12D]
Sequence (P01116 whole entry G12D): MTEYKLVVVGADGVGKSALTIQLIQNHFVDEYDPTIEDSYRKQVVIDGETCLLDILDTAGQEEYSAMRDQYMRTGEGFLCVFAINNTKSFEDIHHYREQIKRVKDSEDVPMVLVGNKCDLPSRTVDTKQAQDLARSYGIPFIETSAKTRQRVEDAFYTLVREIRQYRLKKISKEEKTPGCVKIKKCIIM
Sequence (P40337 whole entry partner): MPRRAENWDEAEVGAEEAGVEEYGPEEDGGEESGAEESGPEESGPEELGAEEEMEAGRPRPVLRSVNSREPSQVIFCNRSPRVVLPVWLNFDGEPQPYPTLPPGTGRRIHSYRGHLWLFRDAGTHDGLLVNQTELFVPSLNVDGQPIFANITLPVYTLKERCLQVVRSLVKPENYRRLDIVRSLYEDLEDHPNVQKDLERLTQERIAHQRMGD
Experiment Description: PROTAC activity at VHL/KRAS G12D mutant in human ASPC1 cells assessed as induction of protein degradation incubated for 24 hrs by Western blot analysis relative to control
Assay type: cell-based
Returns one of True or False; True when Emax is >= 90%.

Structure	Cat
CCc1cccc2cc(O)cc(-c3ncc4c(N5C[C@H]6CC[C@@H](C5)N6)nc(OC[C@@H]5CCCN5C5CC6(CCN(CC(=O)N[C@H](C(=O)N7C[C@H](O)C[C@H]7C(=O)N[C@@H](C)c7ccc(-c8scnc8C)cc7)C(C)(C)C)CC6)C5)nc4c3F)c12	False
C#Cc1c(F)ccc2cc(O)cc(-c3ncc4c(N5C[C@H]6CC[C@@H](C5)N6)nc(OC[C@@H]5CCCN5CCCCOCC(=O)N[C@H](C(=O)N5C[C@H](O)C[C@H]5C(=O)N[C@@H](C)c5ccc(-c6scnc6C)cc5)C(C)(C)C)nc4c3F)c12	True
CCc1cccc2cc(O)cc(-c3ncc4c(N5C[C@H]6CC[C@@H](C5)N6)nc(OC[C@@H]5CCCN5CCCOCCC(=O)N[C@H](C(=O)N5C[C@H](O)C[C@H]5C(=O)N[C@@H](C)c5ccc(-c6scnc6C)cc5)C(C)(C)C)nc4c3F)c12	True
CCc1c(F)ccc2cc(O)cc(-c3ncc4c(N5C[C@H]6CC[C@@H](C5)N6)nc(OC[C@@H]5CCCN5CCCCOCC(=O)N[C@H](C(=O)N5C[C@H](O)C[C@H]5C(=O)N[C@@H](C)c5ccc(-c6scnc6C)cc5)C(C)(C)C)nc4c3F)c12	True
CCc1cccc2cc(O)cc(-c3ncc4c(N5C[C@H]6CC[C@@H](C5)N6)nc(OC[C@@H]5CCCN5CCC(=O)NCCC(=O)N[C@H](C(=O)N5C[C@H](O)C[C@H]5C(=O)N[C@@H](C)c5ccc(-c6scnc6C)cc5)C(C)(C)C)nc4c3F)c12	False
CCc1cccc2cc(O)cc(-c3ncc4c(N5C[C@H]6CC[C@@H](C5)N6)nc(OC[C@@H]5CCCN5CCCCOCC(=O)N[C@H](C(=O)N5C[C@H](O)C[C@H]5C(=O)N[C@@H](C)c5ccc(-c6scnc6C)cc5)C(C)(C)C)nc4c3F)c12	True
CCc1cccc2cc(O)cc(-c3ncc4c(N5C[C@H]6CC[C@@H](C5)N6)nc(OC[C@@H]5CCCN5CCCCCCC(=O)N[C@H](C(=O)N5C[C@H](O)C[C@H]5C(=O)N[C@@H](C)c5ccc(-c6scnc6C)cc5)C(C)(C)C)nc4c3F)c12	True
CCc1cccc2cc(O)cc(-c3ncc4c(N5C[C@H]6CC[C@@H](C5)N6)nc(OC[C@@H]5CCCN5CCCCCCCC(=O)N[C@H](C(=O)N5C[C@H](O)C[C@H]5C(=O)N[C@@H](C)c5ccc(-c6scnc6C)cc5)C(C)(C)C)nc4c3F)c12	False

---

Items are presented alongside their recorded Emax.
Test system: von Hippel-Lindau disease tumor suppressor/GTPase KRas (Homo sapiens), P01116+P40337 [G12D]
Experiment Description: PROTAC activity at VHL/KRAS G12D mutant in human ASPC1 cells assessed as induction of protein degradation incubated for 24 hrs by Western blot analysis relative to control
Format: cell-based

Structure	Emax (%)
CCc1cccc2cc(O)cc(-c3ncc4c(N5C[C@H]6CC[C@@H](C5)N6)nc(OC[C@@H]5CCCN5CCCCCCCCC(=O)N[C@H](C(=O)N5C[C@H](O)C[C@H]5C(=O)N[C@@H](C)c5ccc(-c6scnc6C)cc5)C(C)(C)C)nc4c3F)c12	89.3
CCc1cccc2cc(O)cc(-c3ncc4c(N5C[C@H]6CC[C@@H](C5)N6)nc(OC[C@@H]5CCCN5CCCCCC(=O)N[C@H](C(=O)N5C[C@H](O)C[C@H]5C(=O)N[C@@H](C)c5ccc(-c6scnc6C)cc5)C(C)(C)C)nc4c3F)c12	89.7
CCc1cccc2cc(O)cc(-c3ncc4c(N5C[C@H]6CC[C@@H](C5)N6)nc(OC[C@@H]5CCCN5CCCCOCCC(=O)N[C@H](C(=O)N5C[C@H](O)C[C@H]5C(=O)N[C@@H](C)c5ccc(-c6scnc6C)cc5)C(C)(C)C)nc4c3F)c12	90.2
